Value source: ChEMBL document CHEMBL5729653

# Method notes: HIV MT-4 Serum Shift Antiviral Reporter Assay: To quantify the amount of protein binding to human serum, compounds were serially diluted (1:3) in DMSO and acoustically transferred onto 384-well assay plates via a Labcyte ECHO robot. Each plate contained up to 8 test compounds, including negative and positive controls, (DMSO, 5 μM AZT respectively). Assay plates were prepared in duplicate, and tested in either CCM (cell culture media) or HS/CCM (human serum/cell culture media). MT-4 cells were first pre-infected with pLai RLuc reporter virus for 2 h at 37° C., then further diluted in either CCM (RPMI media, 10% FBS, 1% P/S) or HS/CCM (RPMI media, 10% FBS, 50% HS, 1% P/S), and subsequently added to each plate using a Biotek Micro Flow dispenser. After a 72-h incubation in a humidified and temperature controlled incubator (37° C.), Renilla Glo (Promega) was added to all assay plates and chemiluminescence read using an Envision plate-reader. EC50 values were defined as the compound concentration that causes a 50% decrease in luminescence signal, and were calculated using a sigmoidal dose-response model to generate curve fits. To determine the amount of protein binding, EC50 fold shifts (or EC50 shifts) were calculated by dividing EC50 (HS/CCM)/EC50 (CCM).
Would you mind telling me the reported EC50 of each entry?
// units = nM; emit number, no label

Q: Entry C[C@H]1C=CC2(CCC2)N2CN1C(=O)c1c(O)c(=O)c(C(=O)NCc3c(F)cc(F)cc3F)cn12 needs its EC50 filled in; supply it.
Result: 3

Q: Entry C[C@@H]1CC[C@H](C)N2CN1n1cc(C(=O)NCc3ccc(F)cc3F)c(=O)c(O)c1C2=O needs its EC50 filled in; supply it.
Result: 1.5

Q: Entry CO[C@@H]1C=C[C@H](C)N2CN1n1cc(C(=O)NCc3c(F)cc(F)cc3F)c(=O)c(O)c1C2=O needs its EC50 filled in; supply it.
Result: 1.8

Q: Entry C[C@H]1C=C[C@H](C)N2CN1C(=O)c1c(O)c(=O)c(C(=O)NCc3c(F)cc(F)cc3F)cn12 needs its EC50 filled in; supply it.
Result: 1.4

Q: Entry C[C@@H]1C=C[C@H](CF)N2CN1n1cc(C(=O)NCc3ccc(F)cc3F)c(=O)c(O)c1C2=O needs its EC50 filled in; supply it.
Result: 1.9
